test system: NCI-H522 lung; assay: NCI-60 one-dose screen, 48 h; conditions: 10 µM unless noted
About 83,000 compounds went through this panel and 20% of them were active in at least one assay; those are over-represented in the sample as a whole. Calls of active or inactive are those of the source. How the source made its calls: active means growth percent below 10; inactive means the rest.
# valid calls are 1 (yes) for active, 0 (no) for inactive; nothing else

As a guide, the following entries are already answered.
> print(dat)
                    structure.smiles.string  assigned.label
1  N#Cc1nnn(-c2ccc(S(N)(=O)=O)cc2)c1NC(=O)CCl          0 (no)
2  O=c1c(F)cn(Cc2ccccc2CCl)c(=O)n1Cc1ccccc1CCl         1 (yes)
3  Cc1cc(C)nc(SC2=C(Nc3cccc(Cl)c3)C(=O)N(Cc3ccccc3)C2=O)n1          0 (no)
4  O=C1Nc2c(ccc(Cl)c2Cl)/C1=C\c1cc(C(F)(F)F)cc(C(F)(F)F)c1          0 (no)

Turning now to a further molecule:
Which outcome did this test record for the molecule CC(=O)c1cc2c(N)c(C(=O)Nc3cccc(F)c3C)sc2nc1C ?
0 (no)

---

system: OVCAR-8 ovarian; assay: NCI-60 one-dose screen, 48 h (100 = growth as untreated, 0 = no growth, -100 = all killed); conditions: 10 µM unless noted
About 83,000 compounds went through this panel and 20% of them were active in at least one assay; those are over-represented in the sample as a whole.
MEASURE: growth (%)
Return type: number; implicit unit %.

Reference set (5 entries):
> print(dat)
                                   compound  measure  measured.value
1  C=C(C)[C@@H]1CC[C@]2(C(N)=O)CC[C@]3(C)[C@H](CC[C@@H]4[C@@]5(C)C/C(=C/c6ccco6)C(=O)C(C)(C)[C@@H]5CC[C@]43C)[C@@H]12   growth            93.8
2  C=CCSSC1N=CNc2nc[nH]c21 (stereo not given)   growth            22.6
3  NC(CSC(c1ccccc1)(c1ccccc1)c1ccc(Cl)cc1)C(=O)O (stereo not given)   growth           -15.9
4  O=S(=O)(Nc1ccc(I)cc1F)c1ccc(-c2cnc(C3CC3)o2)cc1   growth              70
5  C=C1c2nc3ccccc3n2C=C(c2ccc(OC)cc2)N1Cc1ccccc1   growth            88.3

Fill in reported growth for this entry: O=S(=O)(Nc1ccc(Cl)c(F)c1)c1ccc(-c2cnc(C3CC3)o2)cc1
24.5

Fill in reported growth for this entry: Cc1ccc(C2Oc3ccccc3C3CC(c4cccs4)=NN32)cc1 (stereo not given)
99.7

Fill in reported growth for this entry: Cc1cc(N2CCSCC2)nc(NC2CCCC(Nc3ccnc4cc(Cl)ccc34)C2)n1 (stereo not given)
-20.9

Fill in reported growth for this entry: O=C(N=Nc1c(O)[nH]c2ccc(Br)cc12)c1cc(-c2ccccc2)on1
104

Fill in reported growth for this entry: Clc1ccc2c(NCCCNc3nc(-n4ccnc4)nc4ccccc34)ccnc2c1
86.2

Fill in reported growth for this entry: CN1CCN=C1c1ccc(NC(=O)c2ccc(C(=O)Nc3ccc(C4=NCCN4C)cc3)cc2)cc1
85.7

Fill in reported growth for this entry: N#Cc1c(-c2ccc(Cl)cc2)nc(N/N=C/c2cccc(Br)c2)nc1N1CCOCC1
101

Fill in reported growth for this entry: Cc1ncc(C(=O)Nc2ccc(CN3CCN(C)CC3)c(C(F)(F)F)c2)cc1C#Cc1cnc2cccnn12
6.1

Fill in reported growth for this entry: O=C(O)c1ccc(N=CC(=O)c2ccc(-c3ccccc3)cc2)cc1
98.7

Fill in reported growth for this entry: Cc1ccc(C(SCC(N)C(=O)O)(c2ccccc2)c2ccc(C)cc2)cc1 (stereo not given)
-32.5

Fill in reported growth for this entry: COc1ccc(-c2nn(-c3ccc(Cl)cc3)cc2-c2nc3ccccc3[nH]2)cc1
105

Fill in reported growth for this entry: Cn1cc(C(=O)c2nc(-c3c[nH]c4ccc(F)cc34)no2)c2cc(F)ccc21
95.9

Fill in reported growth for this entry: CSc1nc(NCCN2CCOCC2)c(C#N)c(-c2cccc([N+](=O)[O-])c2)n1
97.4

Fill in reported growth for this entry: c1ccc(Cn2cc(-c3nc4ccccc4s3)c3cccnc32)cc1
106

Fill in reported growth for this entry: O=[N+]([O-])c1cnc(N2CCN(CC3CC3)CC2)nc1N1CCN(CC2CC2)CC1
104
